The entries below are paired with their reported solubility kinetic.
- Stated Conditions: buffer; pH 7.4; 200.0 µM

# Compound, Assay Value
rows = [
    ("CC1CC(=O)Nc2ccccc2N1C(=O)Nc1ccc(F)cc1F (stereo unspecified)", "> 49.7 µg/mL"),
    ("O=C(COC(=O)Cn1cnc2ccccc21)Nc1ccc(OC(F)F)cc1", "> 56.3 µg/mL"),
    ("COC(=O)[C@H](C)NC(=O)Nc1cccc(Br)c1", "> 45.2 µg/mL"),
    ("Cc1cccc(C(=O)N/C(=C\\c2ccc(C)o2)C(=O)O)c1", "> 42.8 µg/mL"),
    ("Cc1ccccc1NC(=O)C(=O)c1cn(C)c2ccccc12", "< 0.3 µg/mL"),
]

Inquiry: Which solubility kinetic value belongs to `O=C(Nc1ccccc1)Nc1scc2c1c(=O)oc1ccccc12` ?
Reply text: < 0.4 µg/mL

Inquiry: Which solubility kinetic value belongs to `Nn1c(SCC(=O)Nc2ccc3c(c2)OCO3)nncc1=O` ?
Reply text: > 48.2 µg/mL

Inquiry: Which solubility kinetic value belongs to `Cc1ccccc1OCC(=O)NCCNC(=O)c1ccccn1` ?
Reply text: > 47 µg/mL

Inquiry: Which solubility kinetic value belongs to `COc1ccc(-n2c(O)c(C=NCCN(C)C)c(=O)[nH]c2=O)cc1` ?
Reply text: > 49.9 µg/mL

Inquiry: Which solubility kinetic value belongs to Cc1cccc(-c2noc(CCCC(=O)NCC3CCCO3)n2)c1 (stereo unspecified) ?
Reply text: > 49.4 µg/mL

Inquiry: Which solubility kinetic value belongs to CC(Cc1c[nH]c2ccccc12)NC(=O)OCCCl (stereo unspecified) ?
Reply text: > 42.1 µg/mL

Inquiry: Which solubility kinetic value belongs to `CCOC(=O)CC(=O)CSc1nc(CC)c(C)cc1C#N` ?
Reply text: > 46 µg/mL
